A collection of variants and their measured aptazyme ON/OFF ratio
B1: Pistol ribozyme (parent)
chain: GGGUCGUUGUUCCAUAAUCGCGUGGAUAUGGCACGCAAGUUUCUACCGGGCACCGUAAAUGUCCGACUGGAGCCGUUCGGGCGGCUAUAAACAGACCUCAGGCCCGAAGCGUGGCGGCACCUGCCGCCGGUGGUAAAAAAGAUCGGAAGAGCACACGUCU

Variants of: B1
Assay: aptazyme ON/OFF ratio, guanine; higher = stronger switching; co-transcriptional cleavage with and without guanine
measurement.kind: aptazyme ON/OFF ratio

>  <variant.designation>
U7G G9C U10A U11C

>  <measurement.kind>
aptazyme ON/OFF ratio

>  <measured.number>
1.17

$$$$
>  <variant.designation>
U7A U8A G9C U10A U11G C13U

>  <measurement.kind>
aptazyme ON/OFF ratio

>  <measured.number>
1.24

$$$$
>  <variant.designation>
U7C U8A U10C U11A C12A C13G

>  <measurement.kind>
aptazyme ON/OFF ratio

>  <measured.number>
1.17

$$$$
>  <variant.designation>
U7A U8A G9U U10C C12A

>  <measurement.kind>
aptazyme ON/OFF ratio

>  <measured.number>
1.17

$$$$
>  <variant.designation>
U7C U8G G9A U10C U11A C12A

>  <measurement.kind>
aptazyme ON/OFF ratio

>  <measured.number>
1.15

$$$$
>  <variant.designation>
U7G U8A G9A U10A U11C

>  <measurement.kind>
aptazyme ON/OFF ratio

>  <measured.number>
1.03

$$$$
>  <variant.designation>
U7A U8A G9C U10G U11G C12A

>  <measurement.kind>
aptazyme ON/OFF ratio

>  <measured.number>
1.76

$$$$
>  <variant.designation>
U8G U10A U11C C12G

>  <measurement.kind>
aptazyme ON/OFF ratio

>  <measured.number>
1.21

$$$$
>  <variant.designation>
U7C U8A G9U U11A

>  <measurement.kind>
aptazyme ON/OFF ratio

>  <measured.number>
1.08

$$$$
>  <variant.designation>
U7A U8A U10C U11A C12G C13A

>  <measurement.kind>
aptazyme ON/OFF ratio

>  <measured.number>
1.12

$$$$
>  <variant.designation>
U8C G9C U10G U11A C13G

>  <measurement.kind>
aptazyme ON/OFF ratio

>  <measured.number>
1.19

$$$$
>  <variant.designation>
U7A U8G G9U U10C C12A C13G

>  <measurement.kind>
aptazyme ON/OFF ratio

>  <measured.number>
1.01

$$$$
>  <variant.designation>
U7G U8G U11C C12G

>  <measurement.kind>
aptazyme ON/OFF ratio

>  <measured.number>
1.15

$$$$
>  <variant.designation>
U7C U8C U10A C12U C13U

>  <measurement.kind>
aptazyme ON/OFF ratio

>  <measured.number>
1.03

$$$$
>  <variant.designation>
U7G U8A G9U U10G U11G

>  <measurement.kind>
aptazyme ON/OFF ratio

>  <measured.number>
1.11

$$$$
>  <variant.designation>
U7A U8A G9C U10G U11A C12U C13U

>  <measurement.kind>
aptazyme ON/OFF ratio

>  <measured.number>
1.1

$$$$
>  <variant.designation>
U8G G9C U11A C12A C13G

>  <measurement.kind>
aptazyme ON/OFF ratio

>  <measured.number>
1.05

$$$$
>  <variant.designation>
U7G U10C U11G C12U C13U

>  <measurement.kind>
aptazyme ON/OFF ratio

>  <measured.number>
1.18

$$$$
>  <variant.designation>
U7C U8C U10C U11G C12U C13U

>  <measurement.kind>
aptazyme ON/OFF ratio

>  <measured.number>
1.3

$$$$
>  <variant.designation>
U7A G9A C13G

>  <measurement.kind>
aptazyme ON/OFF ratio

>  <measured.number>
1.06

$$$$
>  <variant.designation>
U7G G9A U10G U11C C12U C13U

>  <measurement.kind>
aptazyme ON/OFF ratio

>  <measured.number>
1.09

$$$$
>  <variant.designation>
U7G G9U U10C U11G C12U C13U

>  <measurement.kind>
aptazyme ON/OFF ratio

>  <measured.number>
1.22

$$$$
>  <variant.designation>
U7C U8G U10C U11G C12G C13U

>  <measurement.kind>
aptazyme ON/OFF ratio

>  <measured.number>
1.11

$$$$
>  <variant.designation>
U7A U8A G9C U11A

>  <measurement.kind>
aptazyme ON/OFF ratio

>  <measured.number>
1.25

$$$$
>  <variant.designation>
U7C U8G U10G C12G C13A

>  <measurement.kind>
aptazyme ON/OFF ratio

>  <measured.number>
1.11

$$$$
>  <variant.designation>
U7C U8G G9C U11A C13G

>  <measurement.kind>
aptazyme ON/OFF ratio

>  <measured.number>
1.06

$$$$
>  <variant.designation>
U7A U8G G9C U11A C13A

>  <measurement.kind>
aptazyme ON/OFF ratio

>  <measured.number>
1.44

$$$$
>  <variant.designation>
U8C U10C U11G C12U C13U

>  <measurement.kind>
aptazyme ON/OFF ratio

>  <measured.number>
1.46

$$$$
>  <variant.designation>
U7C G9C U11G C12A C13G

>  <measurement.kind>
aptazyme ON/OFF ratio

>  <measured.number>
1.06

$$$$
>  <variant.designation>
U7G U8A G9A U11G C12A C13U

>  <measurement.kind>
aptazyme ON/OFF ratio

>  <measured.number>
1.23

$$$$
>  <variant.designation>
U8G U11C C12G C13U

>  <measurement.kind>
aptazyme ON/OFF ratio

>  <measured.number>
1.2

$$$$
>  <variant.designation>
U7G U8C G9C U10A U11G C12U

>  <measurement.kind>
aptazyme ON/OFF ratio

>  <measured.number>
1.26

$$$$
>  <variant.designation>
U7C U8A G9C U10A U11G C12G C13U

>  <measurement.kind>
aptazyme ON/OFF ratio

>  <measured.number>
1.1

$$$$
>  <variant.designation>
U8G G9A C12G

>  <measurement.kind>
aptazyme ON/OFF ratio

>  <measured.number>
1.16

$$$$
>  <variant.designation>
G9U U10A U11C C12U C13A

>  <measurement.kind>
aptazyme ON/OFF ratio

>  <measured.number>
1.11

$$$$
>  <variant.designation>
U7A G9A U10A U11G C12G C13G

>  <measurement.kind>
aptazyme ON/OFF ratio

>  <measured.number>
1.44

$$$$
>  <variant.designation>
U7A U8C U10G C13U

>  <measurement.kind>
aptazyme ON/OFF ratio

>  <measured.number>
1.31

$$$$
>  <variant.designation>
U8G G9U U10G U11C C12A C13A

>  <measurement.kind>
aptazyme ON/OFF ratio

>  <measured.number>
1.02

$$$$
>  <variant.designation>
U7C U8G G9A U11A C12G C13G

>  <measurement.kind>
aptazyme ON/OFF ratio

>  <measured.number>
1.11

$$$$
